FYI, the data here is from PubChem BioAssay (NCI).

# Tested on: SF-268 CNS
# assay: NCI tumour cell line growth inhibition, 48 h; in the data active means GI50 below about 0.43 µM; inactive means the rest
Answer with one of the outcomes given here: class 1 for active, class 0 for inactive

Illustrative cases are given below, each with its answer.
Cc1c(C(=N)C(C#N)C#N)c(=N)oc2c1ccc1ccccc12	class 0
CCN1C(=S)N(CC)C2C1NC(=S)N2/N=C/C=C/c1ccccc1OC (stereo not given)	class 0
CC(=O)O[C@H]1C(=O)[C@@]2(C)C([C@H](OC(=O)c3ccccc3)[C@]3(O)C[C@H](OC(=O)[C@H](O)[C@@H](NC(=O)c4ccccc4)c4ccccc4)C(C)=C1C3(C)C)[C@]1(OC(C)=O)CO[C@@H]1C[C@@H]2O (stereo not given in full)	class 1
COc1cc2c(cc1Nc1nc(N3CCc4ccccc43)c3cc[nH]c3n1)N(C(=O)CN(C)C)CC2	class 0
CC1(C)OC[C@@H]([C@@]2(CO[Si](c3ccccc3)(c3ccccc3)C(C)(C)C)CC=CC(=O)O2)O1	class 0

Q: Returns: the outcome recorded for CCN(CC)Cc1cc(Nc2nc(NC3CCC(N(C)C)CC3)c3ccccc3n2)ccc1OC (stereo not given) in this assay.
A: class 0

Q: Again, but for O=C1NC(=N[C@@H](CO)c2ccccc2)S/C1=C\c1ccc2ncccc2c1
A: class 0

Q: Again, but for CSC1=Nc2c(c(C)c(C)n2COC(CO)CO)C2=NC(=O)CN12
A: class 0

Q: Again, but for O=C(OCc1ccc2c(Br)cc(Br)c(O)c2n1)c1cc2ccccc2[nH]1
A: class 0

Q: Again, but for O=C1NN(C2=NNC3(C(=O)N2)c2ccccc2-c2ccccc23)C(c2ccccc2)=N/C1=C/c1ccc(Cl)cc1
A: class 0

Q: Again, but for CNC(=O)c1ncccc1Nc1nc(Nc2cc3c(cc2OC)CCCN3C(=O)CN(C)C)nc2[nH]ccc12
A: class 0

Q: Again, but for O=C1c2cccc(Oc3ccccc3)c2C(=O)c2cccc(Oc3ccccc3)c21
A: class 0

---

Listing of recorded TGI by entry.
# System: UO-31 renal
# assay: NCI tumour cell line growth inhibition, 48 h

CN(C)CCNC(=O)c1cccc2c1Nc1ccccc1S2	21.8 µM
O=C1C=CC2(O[C@H](c3ccccc3)[C@@H](c3ccccc3)O2)[C@H](Sc2ccccc2O)C1	1.22 µM
CN(C)c1nc(Oc2nc(N(C)C)nc(N(C)C)n2)nc(N(C)C)n1	> 100 µM
CN(C)CCn1c(=O)c2ccc(NCCCN(C)CCCNc3ccc4c(=O)n(CCN(C)C)c(=O)n5c6ccc(O)cc6c(=O)c3c45)c3c(=O)c4cc(O)ccc4n(c1=O)c23	0.452 µM

Q: Entry c1ccc(-c2[nH]ncc2-c2ccnc(-c3ccc(OCCn4ccnc4)cc3)c2)nc1 : reported TGI = ?
A: > 25 µM

Q: Again, but for C[C@]12CCC3[C@@H](CCC45OC4C(=O)CC[C@]35C)C1Cc1cnn(-c3ccc(F)cc3)c1N2 (stereo partly drawn)
A: > 100 µM

Q: Again, but for COC(=O)[C@]1(C)CCC[C@@]2(C)C1CC[C@]13C=C(C(C)C)[C@H](CC21)CC3(Cl)C#N (stereo partly drawn)
A: > 100 µM

Q: Again, but for COC(=O)C1C(=O)O[C@@H](c2ccc3c(c2)OCO3)C1C(=O)OC (mixture of isomers)
A: > 100 µM

---

Listing of recorded TGI by entry.
# System: MOLT-4 leukemia
# assay: NCI tumour cell line growth inhibition, 48 h

CN[C@@H](C)C(=O)N[C@H]1CN(S(=O)(=O)c2cccc(S(=O)(=O)N3CC[C@H]4CC[C@@H](C(=O)NC(c5ccccc5)c5ccccc5)N4C(=O)[C@@H](NC(=O)[C@H](C)NC)C3)c2)CC[C@H]2CC[C@@H](C(=O)NC(c3ccccc3)c3ccccc3)N2C1=O	> 100 µM
C[n+]1cc2cc(O)c(O)cc2c2ccc3cc(O)c(O)cc3c21	11.2 µM
O=c1/c(=C/c2ccccc2[N+](=O)[O-])sc2nnc(-c3cccnc3)n12	> 100 µM

Now consider a different molecule.
Q: Entry CC(=O)Nc1nc(Cl)cc(NCC2(CO)CCC2)n1 : reported TGI = ?
A: > 100 µM

---

Listing of recorded TGI by entry.
# Tested on: OVCAR-8 ovarian
# assay: NCI tumour cell line growth inhibition, 48 h

CC1=CC2C3(C)C(C)(C(C)=CP3(=O)c3c(C(C)C)cc(C(C)C)cc3C(C)C)C1P2(=O)c1c(C(C)C)cc(C(C)C)cc1C(C)C (stereo not given)	16.6 µM

Q: Entry O=C1C=C[C@H](O)[C@@]2(CO)O[C@@H]12 : reported TGI = ?
A: 31.9 µM

Q: Again, but for O=C1Oc2ccccc2C(=O)/C1=C1/C=C(c2ccccc2)SS1
A: > 100 µM

Q: Again, but for CN(C)c1nc(Oc2nc(N(C)C)nc(N(C)C)n2)nc(N(C)C)n1
A: > 100 µM

Q: Again, but for CC(C)Oc1cccc(N2C(n3ccnc3)=Nc3ccncc3S2(=O)=O)c1
A: 40.7 µM

---

# Test system: MDA-MB-435
# assay: NCI tumour cell line growth inhibition, 48 h
Entry flag: 1.0 if TGI reaches 30 µM; 0.0 if it does not.

O=[N+]([O-])c1ccc(Cl)c2c([N+](=O)[O-])cccc12	0.0
Cn1nccc1Nc1nccc(-c2ccn([C@H](CO)c3ccc(Cl)c(F)c3)c(=O)c2)n1	1.0
CNCc1cccc2c1OCCOCCOCCN(C)S(=O)(=O)c1ccc(cc1)-c1cnc(N)c(n1)C(=O)N2	0.0
COc1ccc(C)cc1N1C(=O)C2ON(Cc3ccc(CC(N)=O)cc3)C(c3c4ccccc4c(Cl)c4ccccc34)C2C1=O (stereo not given)	1.0
Cc1c2cccc-2c2cc(O)c3ccccc3c2n1-c1ccc(N(C)C)cc1	0.0
COc1ccc(C2Oc3ccc(Cl)cc3C=C2[N+](=O)[O-])cc1 (stereo not given)	1.0
CCn1c2c(c3ccccc3c1=O)C(=O)c1ccccc1-2	1.0
COC(=O)c1ccccc1C1CN=NC12Cc1c(ccc(C)c1C)C2=O (stereo not given)	1.0

Now look at this one.
Q: // inclusive: TGI at least 30 µM? input: CCn1cc(C(=O)O)c(=O)c2cc(F)c(N3CCN(S(=O)(=O)c4cccc5ccccc45)CC3)cc21
A: 0.0

---

# System: UACC-62 melanoma
# assay: NCI tumour cell line growth inhibition, 48 h; in the data active = GI50 below about 0.43 µM; inactive = the rest
Answer with one of the outcomes given here: class 1 = active, class 0 = inactive

Nc1nc2c(c3cnccc13)C(c1ccc(Cl)c(Cl)c1)Cc1cnccc1-2 (centres undefined)	class 1
COc1cc2c(N3CCN(C(=O)Nc4ccc(OC(C)C)cc4)CC3)ncnc2cc1OCCCN1CCCCC1	class 0
CC1(C)OC[C@@H]([C@@]2(CO[Si](c3ccccc3)(c3ccccc3)C(C)(C)C)CC=CC(=O)O2)O1	class 0

Now look at this one.
Q: Returns: the outcome recorded for O=C1NN(C2=NNC3(C(=O)N2)c2ccccc2-c2ccccc23)C(c2ccccc2)=N/C1=C/c1ccc(Cl)cc1 in this assay.
A: class 0

---

# System: OVCAR-4 ovarian
# assay: NCI tumour cell line growth inhibition, 48 h
Listing of recorded TGI by entry.

Some molecules with known TGI results, for comparison:
CC1=CC2C3(C)C(C)(C(C)=CP3(=O)c3c(C(C)C)cc(C(C)C)cc3C(C)C)C1P2(=O)c1c(C(C)C)cc(C(C)C)cc1C(C)C (stereo not drawn)	16.1 µM
CCOC(=O)CSc1nc(N)c2c(-c3ccccc3)c3c(nc2n1)CCCC3	> 100 µM

Q: Entry Cn1c2ccccc2c2ccc3c(c21)C(=O)c1ccc2c4ccccc4n(C)c2c1C3=O : reported TGI = ?
A: > 100 µM

Q: Again, but for O=C(NCc1ccccc1)c1cc2ccccc2oc1=Nc1cccc(C(F)(F)F)c1
A: > 100 µM

---

Listing of recorded GI50 by entry.
# Test system: HCT-116 colon
# assay: NCI tumour cell line growth inhibition, 48 h

Some compounds with known GI50 results, for comparison:
COc1ccc2c(N)ncc(C#Cc3cc(C(=O)Nc4ccc(CN5CCN(C)CC5)c(C(F)(F)F)c4)cnc3C)c2c1	0.483 µM
O=C(Nc1cccc(-n2cc(-c3ccncc3)c(-c3cc(O)cc(Cl)c3)n2)c1)c1ccc(N2CCOCC2)c(C(F)(F)F)c1	1.96 µM

Q: Entry O=C1/C(=C/c2ccc(Cl)c(Cl)c2)CN(C(=O)CCN2CCC(=NO)CC2)C/C1=C\c1ccc(Cl)c(Cl)c1 : reported GI50 = ?
A: 0.267 µM

Q: Again, but for O=C1NC(=N[C@@H](CO)c2ccccc2)S/C1=C\c1ccc2ncccc2c1
A: 5.22 µM

Q: Again, but for COC1N(C2CC(O)C(CO)O2)C(=O)NC(=O)C1(F)Br (centres undefined)
A: 12.6 µM

Q: Again, but for CCCCCOc1ccc(/C=N/Nc2cc(C)nc3ccc(Cl)cc23)cc1
A: 1.04 µM

Q: Again, but for COc1cc2c(cc1Nc1nc(N3CCc4ccccc43)c3cc[nH]c3n1)N(C(=O)CN(C)C)CC2
A: 1.33 µM

Q: Again, but for CSC1=Nc2c(c(C)c(C)n2COC(CO)CO)C2=NC(=O)CN12
A: > 100 µM

Q: Again, but for O=C(OCc1ccc2c(Br)cc(Br)c(O)c2n1)c1cc2ccccc2[nH]1
A: 0.16 µM
